Answer each item with its documented clearance.
- PROTOCOL TEXT: Clearance in rat at 3 mg/kg, iv
- Assay type: ADME, organism-based
- Parameters: dose 3 mg/kg, route intravenous
- CONDITION: in vivo
Please give a number only; it is taken to be in mL/min/kg.

The recorded clearance for entry COC(=O)N[C@H](C(=O)N1CCC[C@H]1C(=O)Nc1ccc([C@@H]2CC[C@@H](c3ccc(NC(=O)[C@@H]4CCCN4C(=O)[C@@H](NC(=O)OC)C(C)C)cc3)N2c2ccc(C(F)(F)F)cc2)cc1)C(C)C equals 20

Reported clearance of COC(=O)N[C@H](C(=O)N1CCC[C@H]1C(=O)Nc1ccc([C@H]2CC[C@H](c3ccc(NC(=O)[C@@H]4CCCN4C(=O)[C@@H](NC(=O)OC)[C@H]4CCOC4)cc3)N2c2ccc(F)cc2)cc1)[C@H]1CCOC1 : 66.7

Entry under test: COC(=O)N[C@H](C(=O)N1CCC[C@H]1C(=O)Nc1ccc([C@H]2CC[C@H](c3ccc(NC(=O)[C@@H]4CCCN4C(=O)[C@@H](NC(=O)OC)C(C)(C)C)cc3)N2c2ccc(F)cc2)cc1)C(C)(C)C . Its clearance was 1.67

Form field clearance, entry COC(=O)N[C@H](C(=O)N1CCC[C@H]1C(=O)Nc1ccc([C@@H]2CC[C@@H](c3ccc(NC(=O)[C@@H]4CCCN4C(=O)[C@@H](NC(=O)OC)[C@@H](C)OC)cc3)N2c2ccc(F)cc2)cc1)[C@@H](C)OC : 56.7

Input COC(=O)N[C@H](C(=O)N1CCC[C@H]1C(=O)Nc1ccc([C@H]2CC[C@H](c3ccc(NC(=O)[C@@H]4CCCN4C(=O)[C@@H](NC(=O)OC)C(C)C)cc3)N2c2ccc(C(C)(C)C)cc2)cc1)C(C)C . Output clearance: 7.17

compound COC(=O)N[C@H](C(=O)N1CCC[C@H]1C(=O)Nc1ccc([C@@H]2CC[C@@H](c3ccc(NC(=O)[C@@H]4CCCN4C(=O)[C@@H](NC(=O)OC)[C@H]4CCOC4)cc3)N2c2ccc(F)cc2)cc1)[C@H]1CCOC1 , clearance observed: 31.7

Documented clearance of COC(=O)N[C@H](C(=O)N1CCC[C@H]1C(=O)Nc1ccc([C@H]2CC[C@H](c3ccc(NC(=O)[C@@H]4CCCN4C(=O)[C@@H](NC(=O)OC)C(C)(C)C)cc3)N2c2ccc(C(C)(C)C)cc2)cc1)C(C)(C)C : 2.83

Data point: COC(=O)N[C@H](C(=O)N1CCC[C@H]1C(=O)Nc1ccc([C@@H]2CC[C@@H](c3ccc(NC(=O)[C@@H]4CCCN4C(=O)[C@@H](NC(=O)OC)C(C)C)cc3)N2c2ccc(F)cc2)cc1)C(C)C ; clearance = 15

So for COC(=O)N[C@H](C(=O)N1CCC[C@H]1C(=O)Nc1ccc([C@H]2CC[C@H](c3ccc(NC(=O)[C@@H]4CCCN4C(=O)[C@@H](NC(=O)OC)C(C)C)cc3)N2c2ccc(F)cc2)cc1)C(C)C , the logged clearance turned out to be 2.17

// clearance value for COC(=O)N[C@H](C(=O)N1CCC[C@H]1C(=O)Nc1ccc([C@@H]2CC[C@@H](c3ccc(NC(=O)[C@@H]4CCCN4C(=O)[C@@H](NC(=O)OC)C(C)(C)C)cc3)N2c2ccc(C(C)(C)C)cc2)cc1)C(C)(C)C : 2.83

Lab note: measured clearance of COC(=O)N[C@H](C(=O)N1CCC[C@H]1C(=O)Nc1ccc([C@H]2CC[C@H](c3ccc(NC(=O)[C@@H]4CCCN4C(=O)[C@@H](NC(=O)OC)C(C)C)cc3)N2c2ccc(C(F)(F)F)cc2)cc1)C(C)C was 4.83

Notebook: COC(=O)N[C@H](C(=O)N1CCC[C@H]1C(=O)Nc1ccc([C@H]2CC[C@H](c3ccc(NC(=O)[C@@H]4CCCN4C(=O)[C@@H](NC(=O)OC)[C@@H](C)OC)cc3)N2c2ccc(F)cc2)cc1)[C@@H](C)OC , clearance read as 45

Per the records, this compound ( COC(=O)N[C@H](C(=O)N1CCC[C@H]1C(=O)Nc1ccc([C@@H]2CC[C@@H](c3ccc(NC(=O)[C@@H]4CCCN4C(=O)[C@@H](NC(=O)OC)C(C)C)cc3)N2c2ccc(C(C)(C)C)cc2)cc1)C(C)C ) has clearance equal to 10.8
